test system: Danio rerio larvae (5 dpf); experiment: combined upward orientation toward moving lines (periods 7-14) minus DMSO control (percentage points); higher = more orientation with moving lines than DMSO larvae; details: 10 µM; exposure time: 3 h pre-incubation + 3 h imaging
Counter-ions that a name gives are not always drawn.
endpoint label: combined upward orientation toward moving lines
Answer with a bare number; do not write a unit.

For orientation, consider the following solved cases.
O=c1[nH]c2ccccc2n1C1CCN(CCCC(c2ccc(F)cc2)c2ccc(F)cc2)CC1 [Pimozide] = -5.82
C=C1C[C@@H]2[C@H](CC[C@]3(C)C(=O)CC[C@@H]23)[C@@]2(C)C=CC(=O)C=C12 = 1.27
CCN(C)C(=O)Oc1cccc([C@H](C)N(C)C)c1 [Rivastigmine tartrate] = -5.99
N[C@@H]1C[C@H]1c1ccccc1 [Tranylcypromine hydrochloride] = 1.03
CN1C[C@H](C(=O)N[C@]2(C)O[C@@]3(O)[C@@H]4CCCN4C(=O)[C@H](Cc4ccccc4)N3C2=O)C[C@@H]2c3cccc4[nH]cc(c34)C[C@H]21 [Dihydroergotamine mesylate] = -20.6

Please find the next compound below.
QUERY: Hi! What's the reported combined upward orientation toward moving lines for COc1cc2c(cc1OC)C1CC(=O)C(CC(C)C)CN1CC2 (stereo unspecified) on Danio rerio larvae (5 dpf)?
RESULT: -21.4

###

system: Danio rerio larvae (5 dpf); test: 1-h baseline activity (% time moving, periods 1-6) minus DMSO control (percentage points); higher = more locomotor activity than DMSO larvae; details: 10 µM; exposure time: 3 h pre-incubation + 3 h imaging
Structures can show the parent of a compound that is named as a salt.
Think of -0.8 as a floor: if 1-h baseline activity stands on it or above, it is criterion met; beneath it, criterion not met.

// known answers, use as guide
CC(C)C[C@H]1C(=O)N2CCC[C@H]2[C@]2(O)O[C@](NC(=O)[C@@H]3C=C4c5cccc6[nH]c(Br)c(c56)C[C@H]4N(C)C3)(C(C)C)C(=O)N12 [Bromocriptine mesylate] = criterion met
CC[C@@H](C(N)=O)N1CCCC1=O [Levetiracetam] = criterion met
CC(O)(CS(=O)(=O)c1ccc(F)cc1)C(=O)Nc1ccc(C#N)c(C(F)(F)F)c1 (configuration not stated) [Bicalutamide] = criterion met
CCN(C)C(=O)Oc1cccc([C@H](C)N(C)C)c1 [Rivastigmine tartrate] = criterion met
C=C1C[C@@H]2[C@H](CC[C@]3(C)C(=O)CC[C@@H]23)[C@@]2(C)C=CC(=O)C=C12 [Exemestane] = criterion not met

QUERY: Answer whether 1-h baseline activity of C=CCN1C[C@H](C(=O)N(CCCN(C)C)C(=O)NCC)C[C@@H]2c3cccc4[nH]cc(c34)C[C@H]21 [Cabergoline] is greater than or equal to -0.8.
RESULT: criterion not met

###

test system: Danio rerio larvae (5 dpf); test: startle (activity period 16 minus period 15, 20-s interval sound) minus DMSO control (percentage points); higher = stronger startle response than DMSO larvae; settings: 10 µM; exposure time: 3 h pre-incubation + 3 h imaging
Structures can show the parent of a compound that is named as a salt.
Here, each record is paired with measured startle data.
Answer with a bare number; do not write a unit.

QUERY: Hi! What's the reported startle for CC(C)C[C@H]1C(=O)N2CCC[C@H]2[C@]2(O)O[C@](NC(=O)[C@@H]3C=C4c5cccc6[nH]c(Br)c(c56)C[C@H]4N(C)C3)(C(C)C)C(=O)N12 [Bromocriptine mesylate] on Danio rerio larvae (5 dpf)?
RESULT: -8.86

QUERY: Hi! What's the reported startle for O=c1[nH]c2ccccc2n1C1CCN(CCCC(c2ccc(F)cc2)c2ccc(F)cc2)CC1 [Pimozide] on Danio rerio larvae (5 dpf)?
RESULT: 0.33

QUERY: Hi! What's the reported startle for C=C1C[C@@H]2[C@H](CC[C@]3(C)C(=O)CC[C@@H]23)[C@@]2(C)C=CC(=O)C=C12 [Exemestane] on Danio rerio larvae (5 dpf)?
RESULT: 1.86

QUERY: Hi! What's the reported startle for CC[C@@H](C(N)=O)N1CCCC1=O [Levetiracetam] on Danio rerio larvae (5 dpf)?
RESULT: 1.63

QUERY: Hi! What's the reported startle for CC(O)(CS(=O)(=O)c1ccc(F)cc1)C(=O)Nc1ccc(C#N)c(C(F)(F)F)c1 (stereo not drawn) [Bicalutamide] on Danio rerio larvae (5 dpf)?
RESULT: 0.428

QUERY: Hi! What's the reported startle for CN1C[C@H](C(=O)N[C@]2(C)O[C@@]3(O)[C@@H]4CCCN4C(=O)[C@H](Cc4ccccc4)N3C2=O)C[C@@H]2c3cccc4[nH]cc(c34)C[C@H]21 [Dihydroergotamine mesylate] on Danio rerio larvae (5 dpf)?
RESULT: 6.26

QUERY: Hi! What's the reported startle for N[C@@H]1C[C@H]1c1ccccc1 [Tranylcypromine hydrochloride] on Danio rerio larvae (5 dpf)?
RESULT: -9.63

QUERY: Hi! What's the reported startle for CCN(C)C(=O)Oc1cccc([C@H](C)N(C)C)c1 [Rivastigmine tartrate] on Danio rerio larvae (5 dpf)?
RESULT: 5.22
